Task for the reader: assign each of the following compounds its reported cytotoxicity at 70.5 h.
# Experiment notes: Human HepG2 cell viability assay in 384 well format
# Assay type: toxicity, cell-based
# Set-up: dose 125 nL, time 70.5 hour; concentration not given beside the values
# Test parameters: HepG2 cells, read-out: Inhibition
Value expressed in %; do not type the unit.

INPUT: Report cytotoxicity at 70.5 h for CCNc1ccnc(NC2CCN(S(C)(=O)=O)CC2)n1 please.
OUTPUT: -14.6

INPUT: Report cytotoxicity at 70.5 h for Cc1nn(C)c2cnn(C(C)C(=O)NCc3cccnc3)c12 (stereo not drawn) please.
OUTPUT: -5.87

INPUT: Report cytotoxicity at 70.5 h for O=C(c1ccncc1)N1CCC2(COc3ncccc3S(=O)(=O)N2)C1 (stereo not drawn) please.
OUTPUT: -5.87

INPUT: Report cytotoxicity at 70.5 h for Cc1ccc(N2C[C@@H]3CN(Cc4ccsc4)CCO[C@@H]3C2)nn1 please.
OUTPUT: -11.5

INPUT: Report cytotoxicity at 70.5 h for Clc1ccc(N2CCC(OCC3CCCCO3)CC2)nc1 (stereo not drawn) please.
OUTPUT: -1.36

INPUT: Report cytotoxicity at 70.5 h for CSc1ccc(OC(C)C(=O)Nc2cc(C)n[nH]2)cc1 (stereo not drawn) please.
OUTPUT: -1.12

INPUT: Report cytotoxicity at 70.5 h for CC[C@@]1(O)CCN(C(=O)c2ccc(OC(F)F)cc2)C[C@H]1O please.
OUTPUT: -4.22

INPUT: Report cytotoxicity at 70.5 h for Cc1nc(CN2CCOC(CNc3cccnn3)C2)cs1 (stereo not drawn) please.
OUTPUT: 2.31

INPUT: Report cytotoxicity at 70.5 h for Cc1cc(F)ccc1N1CCCC(Nc2nccn3cnnc23)C1=O (stereo not drawn) please.
OUTPUT: -2.63

INPUT: Report cytotoxicity at 70.5 h for CCCN1Cc2nc(N3CCCC3)ncc2C1=O please.
OUTPUT: -5.27

INPUT: Report cytotoxicity at 70.5 h for O=C(CO[C@@H]1CC[C@H]2[C@H]1OCCN2c1ncccn1)N1CCCC1 please.
OUTPUT: -0.322

INPUT: Report cytotoxicity at 70.5 h for COc1ccccc1Oc1ncccc1CNC(=O)[C@@H](C)NC(C)=O please.
OUTPUT: -0.828

INPUT: Report cytotoxicity at 70.5 h for CCCc1ccc(C(=O)N2Cc3c(Cn4ccnc4)nn(C)c3C2)cc1 please.
OUTPUT: -8.3

INPUT: Report cytotoxicity at 70.5 h for O=C(c1ccco1)N1C(CN2CCOCC2)[C@]2(O)CC[C@H]1CC2 (stereo partly drawn) please.
OUTPUT: -6

INPUT: Report cytotoxicity at 70.5 h for c1csc(CN2CCCC3(COCCN(Cc4c[nH]nn4)C3)C2)c1 (stereo not drawn) please.
OUTPUT: 1.75

INPUT: Report cytotoxicity at 70.5 h for CC(=O)c1sc2nc3c(c(C(F)(F)F)c2c1N)CN(C(C)=O)CC3 please.
OUTPUT: 8.25

INPUT: Report cytotoxicity at 70.5 h for COCCN1CCO[C@H]2CN(C(=O)c3ccncc3F)C[C@H]21 please.
OUTPUT: -9.68

INPUT: Report cytotoxicity at 70.5 h for Cc1ccc(OCCC(=O)N2CCN(c3cnccn3)CC2)cc1C please.
OUTPUT: -4.94

INPUT: Report cytotoxicity at 70.5 h for O=C(NC1CCCCC1)c1nnc2ccc(N3CCOCC3)cc2n1 please.
OUTPUT: -8.08

INPUT: Report cytotoxicity at 70.5 h for Cc1ccc(CNC(=O)C2CCNC(=O)C2)c(OCCC(C)C)c1 (stereo not drawn) please.
OUTPUT: 0.635

INPUT: Report cytotoxicity at 70.5 h for CCn1ccnc1CN1CCCN(C(=O)c2cc[nH]n2)CC1 please.
OUTPUT: 0.0306

INPUT: Report cytotoxicity at 70.5 h for COCCN1CCc2cc(C(=O)N(C)C)c(NCC3CC3)nc2CC1 please.
OUTPUT: -4.26

INPUT: Report cytotoxicity at 70.5 h for CC(C)n1nc(CN2CCOCC2)c2c1CN(Cc1ccsc1)C2 please.
OUTPUT: -4.8
